measurement.target: T1, IL-6/sIL-6R complex (human, UniProt P08887 20-358, limits assumed)
T1 construct: Formed on the plate: sIL-6R coated at 10 ug/ml, then human IL-6 added at 200 ng/ml; also called sIL-6/sIL-6R complex; IL-6/IL-6R complex
T1 sequence (chain, as listed by the source limits assumed, chain 1 of 2): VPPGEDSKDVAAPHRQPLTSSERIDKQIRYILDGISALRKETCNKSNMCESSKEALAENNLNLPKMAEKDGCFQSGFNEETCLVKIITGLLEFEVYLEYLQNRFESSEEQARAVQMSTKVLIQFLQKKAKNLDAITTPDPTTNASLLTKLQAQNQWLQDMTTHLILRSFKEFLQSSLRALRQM
T1 sequence (P08887 20-358 limits assumed, chain 2 of 2): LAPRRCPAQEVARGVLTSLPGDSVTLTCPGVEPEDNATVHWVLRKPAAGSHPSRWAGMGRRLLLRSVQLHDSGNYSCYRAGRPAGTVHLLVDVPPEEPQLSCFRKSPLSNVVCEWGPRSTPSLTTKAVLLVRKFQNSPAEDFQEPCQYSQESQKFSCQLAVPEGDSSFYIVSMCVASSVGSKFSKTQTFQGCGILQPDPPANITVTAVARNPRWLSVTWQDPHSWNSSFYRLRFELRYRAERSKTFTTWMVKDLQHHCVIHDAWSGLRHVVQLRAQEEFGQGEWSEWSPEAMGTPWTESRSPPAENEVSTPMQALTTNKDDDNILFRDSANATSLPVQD
protocol: EIA: sIL-6R coated, 200 ng/ml human IL-6, antibody dilutions from 10 ug/ml, anti-human IgG-HRP
measurement.label: binding result

>  <binder>
AME-16 (antibody, V domains shown, Tested as IgG; also called AME-A16; 106) VH: EVQLVESGGGLVQPGGSLRLSCAASGFTFSSFAMSWVRQAPGKGLEWVAKISPGGSYTYYPDTVTGRFTISRDNAKNSLYLQMNSLRAEDTAVYYCARQLWGYYALDYWGQGTTVTVSS VL: EIVLTQSPATLSLSPGERATLSCSASSSVSYMYWYQQKPGQAPRLLIYDTSNLASGIPARFSGSGSGTDFTLTISSLEPEDFAVYYCSQWSGYPYTFGGGTKVEIK

>  <meas.value>
binds

$$$$
